The values you see were collected from PubChem BioAssay AID485297.

test: qHTS Assay for Rab9 Promoter Activators; conditions: Huh7 Rab9 promoter-luciferase reporter, luminescence, 24 h; series mostly up to 9.22 µM; also: nearly all actives have a fitted effect of over 60% in size
About 9,100 (2.8%) of roughly 320,000 compounds were called active. Roughly 3% stayed inconclusive and do not appear here. Calls follow the shape of the dose curve; as a rule, active = well fitted activation curve with a large enough effect; inconclusive = small, poorly fitted or top-dose-only effect; inactive = no such curve, though single readings can be large or run the other way. The full list was thinned out, with actives kept by preference.
Could you please pick one outcome from this set? YES for active, NO for inactive

COCCNc1nc2nonc2nc1N1CCCC1c1nccs1 (centres undefined)
NO
CN(CC(=O)NCc1ccc2c(c1)OCO2)CC(=O)Nc1ccc(F)c(F)c1F
NO
CCC(C)N1C(=O)S/C(=C/c2ccc(Sc3nc4ccccc4[nH]3)o2)C1=O (centres undefined)
NO

Okay, next one:
// outcome(item) with item = `CCn1c(SCC(=O)Nc2ccc3c(c2)OCCO3)nnc1-c1ccncc1`
NO
